TARGET_OR_SYSTEM: T1, Clostridium difficile toxin A (TcdA) (Clostridium difficile, UniProt P16154 1-2710)
T1 construct: mature; also called full-length TcdA
T1 sequence (P16154 whole entry): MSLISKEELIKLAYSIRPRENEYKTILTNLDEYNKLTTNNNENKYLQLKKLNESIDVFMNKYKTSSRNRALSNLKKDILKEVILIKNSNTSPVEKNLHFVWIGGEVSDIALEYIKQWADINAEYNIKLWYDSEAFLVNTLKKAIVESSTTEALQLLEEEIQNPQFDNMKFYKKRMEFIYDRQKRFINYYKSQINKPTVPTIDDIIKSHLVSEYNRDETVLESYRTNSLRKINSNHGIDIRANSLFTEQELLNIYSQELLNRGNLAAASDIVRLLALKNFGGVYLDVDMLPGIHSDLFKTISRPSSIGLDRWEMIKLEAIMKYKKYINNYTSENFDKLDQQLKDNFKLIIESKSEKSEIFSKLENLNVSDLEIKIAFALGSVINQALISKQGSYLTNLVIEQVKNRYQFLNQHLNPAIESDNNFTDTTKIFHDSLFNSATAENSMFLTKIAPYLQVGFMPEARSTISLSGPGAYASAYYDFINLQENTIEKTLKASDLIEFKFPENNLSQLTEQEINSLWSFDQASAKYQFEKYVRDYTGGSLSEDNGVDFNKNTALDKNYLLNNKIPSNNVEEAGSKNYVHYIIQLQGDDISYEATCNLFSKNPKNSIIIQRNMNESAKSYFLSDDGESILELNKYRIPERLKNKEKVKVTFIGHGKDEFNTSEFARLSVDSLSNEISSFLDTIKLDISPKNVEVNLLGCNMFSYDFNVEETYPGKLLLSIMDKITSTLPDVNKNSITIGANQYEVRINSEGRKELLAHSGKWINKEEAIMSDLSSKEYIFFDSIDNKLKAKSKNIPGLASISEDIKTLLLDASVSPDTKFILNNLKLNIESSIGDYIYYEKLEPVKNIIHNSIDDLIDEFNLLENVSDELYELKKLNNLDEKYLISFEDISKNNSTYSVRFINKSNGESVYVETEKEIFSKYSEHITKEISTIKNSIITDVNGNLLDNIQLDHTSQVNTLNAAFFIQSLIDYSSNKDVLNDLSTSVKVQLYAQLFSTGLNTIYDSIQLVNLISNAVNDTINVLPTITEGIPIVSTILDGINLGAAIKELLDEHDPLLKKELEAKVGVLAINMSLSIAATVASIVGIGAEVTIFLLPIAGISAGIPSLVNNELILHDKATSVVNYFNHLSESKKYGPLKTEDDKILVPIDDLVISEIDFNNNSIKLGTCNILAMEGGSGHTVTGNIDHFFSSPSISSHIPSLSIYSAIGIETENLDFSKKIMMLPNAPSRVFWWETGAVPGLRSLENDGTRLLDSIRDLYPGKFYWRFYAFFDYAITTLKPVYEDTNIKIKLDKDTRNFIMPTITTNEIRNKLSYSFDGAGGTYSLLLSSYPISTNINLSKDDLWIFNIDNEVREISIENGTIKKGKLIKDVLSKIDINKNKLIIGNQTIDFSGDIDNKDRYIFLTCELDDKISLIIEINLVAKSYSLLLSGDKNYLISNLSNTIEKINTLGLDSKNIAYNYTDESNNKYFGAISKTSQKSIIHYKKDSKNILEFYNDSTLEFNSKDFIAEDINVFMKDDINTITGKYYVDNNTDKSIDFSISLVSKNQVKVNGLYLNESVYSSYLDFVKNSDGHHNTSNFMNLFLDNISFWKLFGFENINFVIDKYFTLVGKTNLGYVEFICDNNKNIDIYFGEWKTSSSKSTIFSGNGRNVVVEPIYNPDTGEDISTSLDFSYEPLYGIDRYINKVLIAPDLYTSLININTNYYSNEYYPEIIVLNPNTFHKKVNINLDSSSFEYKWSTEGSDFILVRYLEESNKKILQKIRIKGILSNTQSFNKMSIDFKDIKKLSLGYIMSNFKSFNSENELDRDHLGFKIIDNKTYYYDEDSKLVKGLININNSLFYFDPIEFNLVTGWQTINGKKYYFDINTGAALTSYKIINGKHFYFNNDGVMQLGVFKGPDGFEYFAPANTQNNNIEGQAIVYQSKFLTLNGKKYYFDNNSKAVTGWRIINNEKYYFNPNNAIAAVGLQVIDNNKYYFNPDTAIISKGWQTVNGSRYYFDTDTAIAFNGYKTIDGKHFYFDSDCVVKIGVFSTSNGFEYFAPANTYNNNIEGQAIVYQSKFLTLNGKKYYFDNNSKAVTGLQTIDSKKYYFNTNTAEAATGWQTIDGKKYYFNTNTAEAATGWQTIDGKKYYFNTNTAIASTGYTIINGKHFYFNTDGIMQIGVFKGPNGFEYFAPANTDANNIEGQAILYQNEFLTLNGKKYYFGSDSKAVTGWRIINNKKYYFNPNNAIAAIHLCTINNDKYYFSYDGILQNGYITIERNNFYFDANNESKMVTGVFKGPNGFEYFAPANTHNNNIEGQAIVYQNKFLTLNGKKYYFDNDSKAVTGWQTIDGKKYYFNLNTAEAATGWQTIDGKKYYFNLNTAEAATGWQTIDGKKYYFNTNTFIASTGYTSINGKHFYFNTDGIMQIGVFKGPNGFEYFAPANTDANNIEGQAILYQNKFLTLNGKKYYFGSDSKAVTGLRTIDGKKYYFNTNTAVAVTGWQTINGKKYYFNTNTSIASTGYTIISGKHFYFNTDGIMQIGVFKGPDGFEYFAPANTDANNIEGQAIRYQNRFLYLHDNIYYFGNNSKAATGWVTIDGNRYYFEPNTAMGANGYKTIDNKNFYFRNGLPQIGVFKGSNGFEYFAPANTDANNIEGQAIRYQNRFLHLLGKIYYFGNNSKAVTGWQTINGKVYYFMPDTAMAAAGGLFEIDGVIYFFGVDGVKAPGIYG
TEST_SUMMARY: SPR (Biacore 3000), VHH over immobilized TcdA, 1:1 fit
MEASUREMENT_KIND: koff (s⁻¹)
Give bare numbers, in s⁻¹.

Below are worked cases with known answers.
A26.8-T56R, Q101K, T103K (VHH, not shown: small tags and cut ends) VHH: QVKLEESGGGLVQAGGSLRLSCAASERTFSRYPVAWFRQAPGAEREFVAVISSTGRSTYYADSVKGRFTISRDNAKVTVYLQMNNLKREDTAVYFCAVNSKRKRLQDPNEYDYWGQGTQVTVSS; 0.0467
A26.8 VHH mutant E110Q (VHH, not shown: small tags and cut ends) VHH: QVKLEESGGGLVQAGGSLRLSCAASERTFSRYPVAWFRQAPGAEREFVAVISSTGTSTYYADSVKGRFTISRDNAKVTVYLQMNNLKREDTAVYFCAVNSQRTRLQDPNQYDYWGQGTQVTVSS; 0.0699
A26.8-T56R, Q101K, T103M (VHH, not shown: small tags and cut ends) VHH: QVKLEESGGGLVQAGGSLRLSCAASERTFSRYPVAWFRQAPGAEREFVAVISSTGRSTYYADSVKGRFTISRDNAKVTVYLQMNNLKREDTAVYFCAVNSKRMRLQDPNEYDYWGQGTQVTVSS; 0.0296
A26.8-T56R, T103R (VHH, not shown: small tags and cut ends, also called lead double mutant; best double mutant) VHH: QVKLEESGGGLVQAGGSLRLSCAASERTFSRYPVAWFRQAPGAEREFVAVISSTGRSTYYADSVKGRFTISRDNAKVTVYLQMNNLKREDTAVYFCAVNSQRRRLQDPNEYDYWGQGTQVTVSS; 0.0193
A26.8-Q101K,T103M (VHH, not shown: small tags and cut ends) VHH: QVKLEESGGGLVQAGGSLRLSCAASERTFSRYPVAWFRQAPGAEREFVAVISSTGTSTYYADSVKGRFTISRDNAKVTVYLQMNNLKREDTAVYFCAVNSKRMRLQDPNEYDYWGQGTQVTVSS; 0.0265

Let's switch to this binder now.
INPUT: Determine from records and report koff for A26.8 VHH mutant R104W (VHH, not shown: small tags and cut ends) VHH: QVKLEESGGGLVQAGGSLRLSCAASERTFSRYPVAWFRQAPGAEREFVAVISSTGTSTYYADSVKGRFTISRDNAKVTVYLQMNNLKREDTAVYFCAVNSQRTWLQDPNEYDYWGQGTQVTVSS
OUTPUT: 0.0548
